Target: human SGLT2 (Homo sapiens, UniProt P31639)
Construct: expressed in transfected cells
Sequence (P31639 1-672): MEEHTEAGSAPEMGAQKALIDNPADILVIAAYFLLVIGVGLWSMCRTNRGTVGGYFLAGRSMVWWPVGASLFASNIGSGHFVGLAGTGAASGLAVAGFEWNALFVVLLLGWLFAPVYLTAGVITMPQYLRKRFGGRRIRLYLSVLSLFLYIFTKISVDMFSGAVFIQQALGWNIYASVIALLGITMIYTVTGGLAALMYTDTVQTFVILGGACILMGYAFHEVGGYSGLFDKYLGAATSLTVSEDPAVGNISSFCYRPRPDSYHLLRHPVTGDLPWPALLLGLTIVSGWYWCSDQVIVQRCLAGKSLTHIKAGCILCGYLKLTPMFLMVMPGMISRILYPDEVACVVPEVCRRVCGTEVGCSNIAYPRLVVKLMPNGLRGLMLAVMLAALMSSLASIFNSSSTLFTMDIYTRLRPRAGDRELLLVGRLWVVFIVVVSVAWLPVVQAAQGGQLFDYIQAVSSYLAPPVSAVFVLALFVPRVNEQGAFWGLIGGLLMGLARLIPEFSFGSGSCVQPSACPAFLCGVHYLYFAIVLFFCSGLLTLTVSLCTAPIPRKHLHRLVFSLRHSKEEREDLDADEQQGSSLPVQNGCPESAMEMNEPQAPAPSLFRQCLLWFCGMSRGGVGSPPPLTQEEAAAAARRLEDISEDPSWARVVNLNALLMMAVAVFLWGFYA
Assay: SGLT2 in vitro assay: Na-dependent 14C-AMG uptake in CHO-K1 cells stably expressing human SGLT2
Format: cell-based
Settings: CHO-K1 cells stably expressing human SGLT2; 14C-AMG uptake; compounds of formula (I) where R0 is fluoro
pIC50: −log10 of the molar value.
Parameter: pIC50

Use the examples below as a reference point.
molecule="CCc1cc(OC)c([C@@H]2O[C@H](CO)C(F)(F)[C@H](O)[C@H]2O)cc1Cc1ccc(C2CC2)cc1 [Compound 151]" parameter=pIC50 quantitative_readout=8.21
molecule="CCc1ccc(Cc2cc([C@@H]3O[C@H](CO)C(F)(F)[C@H](O)[C@H]3O)c(O)cc2Cl)cc1 [Compound 127]" parameter=pIC50 quantitative_readout=8.59
molecule="OC[C@H]1O[C@@H](c2cc(Cc3cc4ccccc4s3)c(Cl)cc2O)[C@H](O)[C@@H](O)C1(F)F [Compound 27]" parameter=pIC50 quantitative_readout=8.38
molecule="Cc1cc(O)c([C@@H]2O[C@H](CO)C(F)(F)[C@H](O)[C@H]2O)cc1Cc1ccc(-c2cccc(F)n2)s1 [Compound 70]" parameter=pIC50 quantitative_readout=8.57
molecule="Cc1cc(O)c([C@@H]2O[C@H](CO)C(F)(F)[C@H](O)[C@H]2O)cc1Cc1ccc(C2CC2)cc1 [Compound 124]" parameter=pIC50 quantitative_readout=9.00
molecule="Cc1cc(O)c([C@@H]2O[C@H](CO)C(F)(F)[C@H](O)[C@H]2O)cc1Cc1ccc(OCF)cc1 [Compound 133]" parameter=pIC50 quantitative_readout=8.89
molecule="COc1cccc(Cc2cc([C@@H]3O[C@H](CO)C(F)(F)[C@H](O)[C@H]3O)c(O)cc2Cl)c1 [Compound 157]" parameter=pIC50 quantitative_readout=8.59
molecule="CCc1cc(O)c([C@@H]2O[C@H](CO)C(F)(F)[C@H](O)[C@H]2O)cc1Cc1cc2ccccc2s1 [Compound 26]" parameter=pIC50 quantitative_readout=7.48
molecule="COc1cc(C)c(Cc2ccc(OCF)cc2)cc1[C@@H]1O[C@H](CO)C(F)(F)[C@H](O)[C@H]1O [Compound 138]" parameter=pIC50 quantitative_readout=8.72
molecule="CCc1ccc(Cc2cc([C@@H]3O[C@H](CO)C(F)(F)[C@H](O)[C@H]3O)c(O)cc2OC)cc1 [Compound 145]" parameter=pIC50 quantitative_readout=8.55

I = Cc1ccc(Cc2cc([C@@H]3O[C@H](CO)C(F)(F)[C@H](O)[C@H]3O)c(O)cc2Cl)s1 [Compound 161]
II = CCOc1ccc(Cc2cc([C@@H]3O[C@H](CO)C(F)(F)[C@H](O)[C@H]3O)c(O)cc2Cl)cc1 [Compound 162]
Problem: Between I and II , which one shows the larger pIC50 value? // return label of chosen record
Result: II
(II: 8.82, I: 8.60)
